- system-tested: human D4R (Homo sapiens (Human))
- Sequence (P21917 whole entry): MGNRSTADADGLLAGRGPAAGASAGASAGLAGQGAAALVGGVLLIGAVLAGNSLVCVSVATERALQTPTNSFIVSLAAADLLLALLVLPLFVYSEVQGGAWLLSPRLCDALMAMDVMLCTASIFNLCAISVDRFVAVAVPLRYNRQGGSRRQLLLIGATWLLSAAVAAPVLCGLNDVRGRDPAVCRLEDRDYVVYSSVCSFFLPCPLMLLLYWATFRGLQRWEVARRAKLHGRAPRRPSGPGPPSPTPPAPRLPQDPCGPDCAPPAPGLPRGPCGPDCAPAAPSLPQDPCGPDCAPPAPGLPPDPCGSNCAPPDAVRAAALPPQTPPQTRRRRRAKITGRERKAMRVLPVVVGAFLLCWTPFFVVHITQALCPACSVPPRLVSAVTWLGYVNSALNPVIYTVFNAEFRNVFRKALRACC
- experimental-protocol: Radioligand competition binding, [3H]N-methylspiperone, HEK293 membranes expressing human D4R
- cond: Table 1A; [3H]N-methylspiperone; read-out: D4R Ki ± SEM
measured-metric: Ki (nM)
Write the answer as a number in nM, unit excluded.

Field: example entries. Status: answers known.
>>> observed_value("CCc1cc(Cl)c(OC)c(N2CCN(CCCCNC(=O)c3cc4ccccc4[nH]3)CC2)c1 [Compound 28]")
1040
>>> observed_value("CCc1cccc(N2CCN(CC(O)CCNC(=O)c3nc(C)c[nH]3)CC2)c1Cl (stereo not shown) [Compound 27]")
1960
>>> observed_value("CCc1cccc(N2CCN(C/C=C/CNC(=O)c3nc(C)c[nH]3)CC2)c1Cl [Compound 35]")
503

Need Ki, item CCc1cccc(N2CCN(CCCCNC(=O)c3cc4ccccc4[nH]3)CC2)c1Cl [Compound 18]
334
